Taken from patent US7109193B2.

measured.on: human vasopressin V1a receptor subtype (Homo sapiens)
Construct: host or cells: CHO cells (pZeoSV vector for the Thibonnier line)
measurement.protocol: Vasopressin binding in Chinese Hamster Ovary cell membranes expressing human vasopressin V1a subtype receptors
assay.conditions: 100 nM, CHO cell membranes, [3H]Manning ligand, values without parentheses
quantity.measured: inhibition at 0.1 µM
Answer with the figure and its unit, nothing else.

Look over these answered cases.
* COc1cc2c(cc1OC)N(C(=O)c1ccc(-c3ccccc3C(F)(F)F)c(C)c1)Cc1cccn1C2 | -10%
* COc1cc(C(=O)N2Cc3ccc(C(=O)N4CCN(C)CC4)n3Cc3ccccc32)ccc1-c1ccccc1C | 38%
* COc1cccc(-c2ccc(C(=O)N3Cc4ccc(C(=O)N5CCN(CCCN(C)C)CC5)n4Cc4ccccc43)cc2OC)c1 | 53%
* O=C(c1ccc(-c2ccccc2)nc1)N1Cc2cccn2Cc2ccccc21 | 74%

Task item: Data request, read-out inhibition at 0.1 µM, for "Cc1ccccc1-c1ccc(C(=O)N2Cc3ccc(C(=O)N4CCC(N5CCCCC5)CC4)n3Cc3ccccc32)cc1"
Reply: 11%

Task item: Next entry: "COc1cc(-c2ccccc2C)c(Cl)cc1C(=O)N1Cc2ccc(C(=O)N[C@@H]3CN4CCC3CC4)n2Cc2ccccc21"
Reply: -2%

Task item: Record: "COc1cc(-c2ccccc2C)c(Cl)cc1C(=O)N1Cc2ccc(C(=O)N(C)C3CCN(C)CC3)n2Cc2ccccc21"
Reply: 26%

Task item: Request: "Cc1ccccc1-c1ccc(C(=O)N2Cc3ccc(C(=O)N(C)C4CCN(C)CC4)n3Cc3ccccc32)cc1"
Reply: 79%

Task item: And the next one, "COc1ccccc1-c1ccc(C(=O)N2Cc3ccc(C(=O)N(C)CCCN(C)C)n3Cc3ccccc32)cc1OC" ?
Reply: 15%

Task item: Next: "COc1ccccc1-c1ccc(C(=O)N2Cc3ccc(C(=O)NCCCN(C)C)n3Cc3ccccc32)cc1C"
Reply: 8%

Task item: Please do the same for "COc1cccc(-c2ccc(C(=O)N3Cc4ccc(C(=O)N(C)CCCN(C)C)n4Cc4ccccc43)cc2C)c1" as well.
Reply: 45%

Task item: Now consider "O=C(c1ccc2n1Cc1ccccc1N(C(=O)c1ccc(-c3cccc4ccccc34)cc1Cl)C2)N1CCC(N2CCCC2)CC1" .
Reply: 3%

Task item: Also need "C=CCN1CCN(C(=O)c2ccc3n2Cc2ccccc2N(C(=O)c2ccc(-n4c(C)ccc4C)c(OC)c2)C3)CC1" , thanks.
Reply: 5%

Task item: Same lookup for "COc1cccc(-c2cc(OC)c(C(=O)N3Cc4ccc(C(=O)N[C@@H](Cc5c[nH]cn5)C(N)=O)n4Cc4ccccc43)cc2Cl)c1" , please.
Reply: 0%

---

// values below are reported inhibition at 0.1 µM
measured.on: human vasopressin V1a receptor subtype (Homo sapiens, UniProt P37288)
Construct: host or cells: CHO cells (pZeoSV vector for the Thibonnier line)
Sequence (P37288 whole entry): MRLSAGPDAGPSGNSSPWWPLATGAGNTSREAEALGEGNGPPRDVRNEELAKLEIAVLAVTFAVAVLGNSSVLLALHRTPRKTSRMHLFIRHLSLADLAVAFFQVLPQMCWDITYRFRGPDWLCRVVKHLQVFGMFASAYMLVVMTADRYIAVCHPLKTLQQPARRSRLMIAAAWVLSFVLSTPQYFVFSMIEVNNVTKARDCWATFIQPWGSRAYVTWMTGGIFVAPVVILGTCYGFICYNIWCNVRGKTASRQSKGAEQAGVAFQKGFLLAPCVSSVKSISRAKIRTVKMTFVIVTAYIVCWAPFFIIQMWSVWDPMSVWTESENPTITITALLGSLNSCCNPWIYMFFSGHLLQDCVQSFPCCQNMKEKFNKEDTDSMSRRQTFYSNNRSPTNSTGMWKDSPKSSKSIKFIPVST
measurement.protocol: Vasopressin binding in Chinese Hamster Ovary cell membranes expressing human vasopressin V1a subtype receptors
assay.conditions: 100 nM, CHO cell membranes, [3H]Manning ligand, values without parentheses
Number in %, nothing else.

* Cc1ccccc1-c1ccc(C(=O)N2Cc3ccc(C(=O)N4CCN(C)CC4)n3Cc3ccccc32)cc1 | 54
* C=CCN1CCN(C(=O)c2ccc3n2Cc2ccccc2N(C(=O)c2ccc(-c4ccccc4C(F)(F)F)c(C)c2)C3)CC1 | 3
* C=CCN1CCN(C(=O)c2ccc3n2Cc2ccccc2N(C(=O)c2ccc(-c4cccc(OC)c4)c(C)c2)C3)CC1 | 12

Task item: inhibition at 0.1 µM for "COc1cc(-c2ccccc2C)c(Cl)cc1C(=O)N1Cc2ccc(C(=O)NCCN3CCCCC3)n2Cc2ccccc21" ?
Reply: 0

Task item: Do the same for "COc1ccccc1-c1ccc(C(=O)N2Cc3ccc(C(=O)N4CCN(C(C)C)CC4)n3Cc3ccccc32)cc1OC" please
Reply: -4

Task item: Please answer likewise for "COc1ccccc1-c1ccc(C(=O)N2Cc3ccc(C(=O)NCCN4CCCCC4)n3Cc3ccccc32)cc1C"
Reply: 17

Task item: Quick one: "CCOc1ccccc1-c1cc(OC)c(C(=O)N2Cc3cccn3Cc3ccccc32)cc1Cl"
Reply: -11

Task item: Query "COc1cccc(-c2cc(OC)c(C(=O)N3Cc4ccc(C(=O)N5CCN(C)CC5)n4Cc4ccccc43)cc2Cl)c1" next
Reply: -4

Task item: Same again, this time with "COc1cccc(-c2ccc(C(=O)N3Cc4ccc(C(=O)N5CCN(CCCN(C)C)CC5)n4Cc4ccccc43)cc2C)c1"
Reply: 17

Task item: Can you check "COc1ccccc1-c1ccc(C(=O)N2Cc3ccc(C(=O)O)n3Cc3ccccc32)cc1C" next?
Reply: 10

Task item: Next compound: "Cc1ccccc1-c1ccc(C(=O)N2Cc3ccc(C(=O)N4CCC(N5CCCCC5)CC4)n3Cc3ccccc32)cc1C"
Reply: 45

Task item: And the next one, "COc1cccc(-c2ccc(C(=O)N3Cc4ccc(C(=O)N(C)C5CCN(C)CC5)n4Cc4ccccc43)cc2C)c1" ?
Reply: 27

Task item: Also, "COc1cccc(-c2ccc(C(=O)N3Cc4ccc(C(=O)N5CCN(C(C)C)CC5)n4Cc4ccccc43)cc2C)c1" please.
Reply: 9

Task item: Another: "COc1cccc(-c2ccc(C(=O)N3Cc4ccc(C(=O)NCCCn5ccnc5)n4Cc4ccccc43)cc2OC)c1"
Reply: 20

Task item: How about COc1cc(C(=O)N2Cc3ccc(C(=O)NCCC4CCCN4C)n3Cc3ccccc32)ccc1-c1cccc2ccccc12 (stereo not shown) ?
Reply: 21
